# assay-protocol: UV-Vis absorption spectra of trans and cis isomers (λstrong, εE, λiso)
# Type: physicochemical
# conditions-used: PBS pH = 7.4, 20% MeCN
measured-property: εE(λstrong) (M⁻¹ cm⁻¹)
# output: bare number, implied unit M⁻¹ cm⁻¹

Below: 5 compounds and their reported εE(λstrong).
Challenge: Identify measured εE(λstrong) associated with "COc1ccc(N=Nc2cc(OC)c(OC)c(OC)c2)c(O)c1C"
Response given: 10872

Challenge: Identify measured εE(λstrong) associated with "COc1ccc(N=Nc2cc(OC)c(OC)c(OC)c2)cc1C(=O)O"
Response given: 20102

Challenge: Give recorded εE(λstrong). "COc1cc(N=Nc2ccc(OC)c3ncccc23)cc(OC)c1OC"
Response given: 18000

Challenge: Consider the compound "COc1ccc(N=Nc2cc(OC)c(OC)c(OC)c2)cc1N" . State its measured εE(λstrong).
Response given: 11400

Challenge: Look up and report measured εE(λstrong) for this entry: "CCN(CC)c1ccc2c(-c3ccccc3C(=O)N3CCN(CCCOc4c(N=Nc5cc(OC)c(OC)c(OC)c5)ccc(OC)c4C)CC3)c3ccc(=[N+](CC)CC)cc-3oc2c1.CCN(CC)c1ccc2c(-c3ccccc3C(=O)N3CCN(CCCOc4c(N=Nc5cc(OC)c(OC)c(OC)c5)ccc(OC)c4C)CC3)c3ccc(=[N+](CC)CC)cc-3oc2c1.O=C[O-].O=C[O-]"
Response given: 15300

New cases:
Challenge: Retrieve εE(λstrong) measured for "COc1ccc(N=Nc2cc(OC)c(OC)c(OC)c2)c(O)c1" and print it.
Response given: 14900

Challenge: Tell me εE(λstrong) reported for "COc1ccc(N=Nc2cc(OC)c(OC)c(OC)c2)c(F)c1"
Response given: 19804

Challenge: Specify reported εE(λstrong) for the compound shown: "COc1ccc(N=Nc2cc(OC)c(OC)c(OC)c2)cc1O"
Response given: 17700

Challenge: Supply measured εE(λstrong) of "COc1ccc(N=Nc2cc(OC)c(OC)c(OC)c2)c(F)c1F" in your reply.
Response given: 19578

Challenge: Give a short answer stating reported εE(λstrong) for "COc1ccc(N=Nc2cc(OC)c(OC)c(OC)c2)c(NC(C)=O)c1" .
Response given: 16300

Challenge: Read the entry "COc1ccc(N=Nc2cc(OC)c(OC)c(OC)c2)cn1" and write its reported εE(λstrong).
Response given: 14200

* * *

# assay-protocol: thermal reversion halflife of spontaneous cis->trans isomerisation
# Format: physicochemical
# conditions-used: PBS pH = 7.4, 20% MeCN
measured-property: τ, reversion time

Challenge: Return τ, reversion time for the following molecule: "COc1ccc(N=Nc2cc(OC)c(OC)c(OC)c2)c(N)c1"
Response given: TOO FAST

Challenge: Tell me measured τ, reversion time for "COc1ccc(N=Nc2cc(OC)c(OC)c(OC)c2)c(O)c1C" please.
Response given: TOO FAST

Challenge: Using known records, supply τ, reversion time for "COc1ccc(N=Nc2cc(OC)c(OC)c(OC)c2)c(O)c1"
Response given: TOO FAST

* * *

# assay-protocol: UV-Vis absorption spectra of trans and cis isomers (λstrong, εE, λiso)
# Assay type: physicochemical
# conditions-used: PBS pH = 7.4, 20% MeCN
measured-property: εE(λstrong) (M⁻¹ cm⁻¹)
Report the value in M⁻¹ cm⁻¹ with no unit label.

// below: answered compounds
Challenge: Look up and state reported εE(λstrong) for COc1cc(N=Nc2ccc(OC)c([N+](=O)[O-])c2F)cc(OC)c1OC [I.7]
Response given: 13600

Challenge: Fill in εE(λstrong) for record COc1ccc(N=Nc2cc(OC)c(OC)c(OC)c2)cc1C=O [I.28]
Response given: 17813

Challenge: Tell us which εE(λstrong) value is on record for COc1ccc(N=Nc2cc(OC)c(OC)c(OC)c2)cc1OC [I.11]
Response given: 18163

Challenge: Supply measured εE(λstrong) of COc1ccc(N=Nc2cc(OC)c(OC)c(OC)c2)c(OC)c1 [I.12] in your reply.
Response given: 12400

Challenge: Check the records and state εE(λstrong) for COc1ccc(N=Nc2cc(F)c(OC)c(F)c2)cc1 [I.9]
Response given: 11400

Challenge: Look up εE(λstrong) of COc1ccc(N=Nc2cc(OC)c(OC)c(OC)c2)cc1 [I.6, reference compound] and report it.
Response given: 16300

Attention now turns to another entry.
Challenge: Complete the entry with εE(λstrong) for COc1ccc(N=Nc2cc(OC)c(OC)c(OC)c2)c(N)c1 [I.16]
Response given: 14430

Ref: patent US20170051149A1
